Hello, the source for this data is ChEMBL document CHEMBL4229534, in case you need it.

Here's what we have: pIC50 numbers for Hematopoietic prostaglandin D synthase (Homo sapiens).
pIC50: −log10 of the molar value.
quantity: pIC50

a = CNS(=O)(=O)c1cccc(CNC(=O)c2cnc(-c3cccc(F)c3)nc2C)c1
b = Cc1nc(-c2ccccn2)ncc1C(=O)Nn1cc(C)c2nc(F)ccc21
From the recorded data, which exceeds the other in pIC50: a or b ? Could you answer with the label of the item you picked?
b
(b: 8.22, a: 8.02)

====

measurementTarget: CYP3A4 (Homo sapiens)
testProtocol: Inhibition of recombinant human CYP3A4 assessed as residual activity using testosterone as substrate relative to control
Assay type: ADME
conditionContext: recombinant human CYP3A4, probe testosterone
quantity: activity (%)

1 = Cc1nc(-c2ccccn2)ncc1C(=O)Nn1ccc2c(C(F)(F)F)cccc21
2 = COc1ccc2c(n1)c(C)cn2NC(=O)c1cnc(-c2ccccn2)nc1C
Which of the two items, 1 and 2 , has the greater recorded activity? Refer to your chosen entry by its label in the reply.
1

====

measurementTarget: CYP3A4 (Homo sapiens)
testProtocol: Inhibition of CYP3A4 in human liver microsomes assessed as residual activity using testosterone as substrate relative to control
Format: ADME
Parameters: concentration or dose not given beside the values
conditionContext: probe testosterone
quantity: activity (%)

Cc1nc(-c2ccccn2)ncc1C(=O)Nn1ccc2c(C(F)(F)F)cccc21 : 91

1 = Cc1nc(-c2ncccn2)ncc1C(=O)Nn1ccc2c(C(F)(F)F)cccc21
2 = Cc1nc(-c2ccccn2)ncc1C(=O)Nn1cc(C)c2cc(F)ccc21
Between the entries labeled 1 and 2 , whose measured activity is lower? Answer format: the label of the selected item.
2

====

measurementTarget: CYP3A4 (Homo sapiens, UniProt P08684)
Sequence (P08684 whole entry): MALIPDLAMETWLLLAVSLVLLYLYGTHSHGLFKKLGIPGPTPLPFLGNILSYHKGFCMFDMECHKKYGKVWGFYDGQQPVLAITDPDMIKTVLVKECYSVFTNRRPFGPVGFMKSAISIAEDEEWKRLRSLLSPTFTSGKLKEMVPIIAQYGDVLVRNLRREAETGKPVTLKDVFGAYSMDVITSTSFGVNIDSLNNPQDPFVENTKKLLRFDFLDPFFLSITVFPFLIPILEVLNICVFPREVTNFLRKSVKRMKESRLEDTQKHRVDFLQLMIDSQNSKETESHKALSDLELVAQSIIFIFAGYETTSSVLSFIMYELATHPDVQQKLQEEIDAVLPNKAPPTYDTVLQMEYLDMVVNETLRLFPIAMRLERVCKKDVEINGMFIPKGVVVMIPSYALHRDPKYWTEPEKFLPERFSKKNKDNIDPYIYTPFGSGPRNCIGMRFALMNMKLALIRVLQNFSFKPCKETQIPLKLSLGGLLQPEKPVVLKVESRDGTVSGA
testProtocol: Inhibition of recombinant human CYP3A4 assessed as residual activity using midazolam as substrate relative to control
Type: ADME
conditionContext: recombinant human CYP3A4, probe midazolam
quantity: activity (%)

P = Cc1nc(-c2ccccn2)ncc1C(=O)Nn1ccc2c(C(F)(F)F)cccc21
Q = COc1ccc2c(n1)c(C)cn2NC(=O)c1cnc(-c2ccccn2)nc1C
// which entry has the larger activity value, P or Q ? Write down the label of the entry you select.
P

====

measurementTarget: Cytochrome P450 3A4 (Homo sapiens, UniProt P08684)
Sequence (P08684 whole entry): as above
testProtocol: Mechanism based inactivation of CYP3A4 in human liver microsomes assessed as apparent partition ratio by measuring ratio of number of inactivator molecules that get metabolized to number of enzyme molecules inactivated using testosterone as substrate
Assay type: ADME
quantity: Ratio

Name the recorded Ratio for "Cc1nc(-c2ccccn2)ncc1C(=O)Nn1cc(C)c2cc(F)ccc21" .
160 to 167

====

measurementTarget: UniProtKB P08684
testProtocol: Inhibition of CYP3A4 in human liver microsomes assessed as residual activity using midazolam as substrate relative to control
Type: ADME
Parameters: concentration or dose not given beside the values
conditionContext: probe midazolam
quantity: activity (%)

Examples with their reported activity follow.
Cc1nc(-c2ncccn2)ncc1C(=O)Nn1ccc2c(C(F)(F)F)cccc21 : 95
Cc1nc(-c2ccccn2)ncc1C(=O)Nn1ccc2c(C(F)(F)F)cccc21 : 100
Cc1nc(-c2ccccn2)ncc1C(=O)Nn1cc(C)c2nc(F)ccc21 : 79

a = Cc1nc(-c2ccccn2)ncc1C(=O)Nn1cc(C)c2cc(F)ccc21
b = COc1ccc2c(n1)c(C)cn2NC(=O)c1cnc(-c2ccccn2)nc1C
Compare reported activity values for a and b . Which is lower? Answer by stating the label of the chosen item.
a
